B1: tRNA (parent)
chain: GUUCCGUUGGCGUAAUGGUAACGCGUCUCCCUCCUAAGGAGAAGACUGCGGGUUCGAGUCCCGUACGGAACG

- Variants of: B1
- procedure-summary: yeast fitness relative to wild type (ratio to wild type); higher = fitter; tRNA-Arg(CCU), competitive growth, 37 C, YPD
This sample holds only a part of the variants without activity.
Please respond with reported yeast fitness for every item in the list.

U32C A40U C55A G56C    ≤ 0.5

Count: 3. Required value per item: yeast fitness.
1. C31G G41A G52C A65U G67C
2. C4A G17C C22U
3. U8A U47C A57C U64C

Response:
1: ≤ 0.5; 2: ≤ 0.5; 3: ≤ 0.5

Count: 5. Required value per item: yeast fitness.
1. C5U A20C A21U U53C U64A
2. U7C A14C G18A A43C A57U G63A
3. G6A C33A A37C
4. U2C C66U
5. U8C C31U

Response:
["≤ 0.5", "≤ 0.5", "≤ 0.5", 0.968, 1.07]

Count: 6. Required value per item: yeast fitness.
1. U13A A57U
2. A14C G18C
3. C24U A43G C60A
4. C5G A14U G67A A69G
5. A14G C30A C34A A43C
6. U13G C22U

Response:
1: 0.681; 2: 0.542; 3: ≤ 0.5; 4: 0.503; 5: ≤ 0.5; 6: 0.972

Count: 2. Required value per item: yeast fitness.
1. U8A C24U A40U A42C A45U C61U
2. G6C U13C C24A C27G A36U

Response:
1. ≤ 0.5
2. ≤ 0.5
